Taken from paper PMC12291762.

Target sequence: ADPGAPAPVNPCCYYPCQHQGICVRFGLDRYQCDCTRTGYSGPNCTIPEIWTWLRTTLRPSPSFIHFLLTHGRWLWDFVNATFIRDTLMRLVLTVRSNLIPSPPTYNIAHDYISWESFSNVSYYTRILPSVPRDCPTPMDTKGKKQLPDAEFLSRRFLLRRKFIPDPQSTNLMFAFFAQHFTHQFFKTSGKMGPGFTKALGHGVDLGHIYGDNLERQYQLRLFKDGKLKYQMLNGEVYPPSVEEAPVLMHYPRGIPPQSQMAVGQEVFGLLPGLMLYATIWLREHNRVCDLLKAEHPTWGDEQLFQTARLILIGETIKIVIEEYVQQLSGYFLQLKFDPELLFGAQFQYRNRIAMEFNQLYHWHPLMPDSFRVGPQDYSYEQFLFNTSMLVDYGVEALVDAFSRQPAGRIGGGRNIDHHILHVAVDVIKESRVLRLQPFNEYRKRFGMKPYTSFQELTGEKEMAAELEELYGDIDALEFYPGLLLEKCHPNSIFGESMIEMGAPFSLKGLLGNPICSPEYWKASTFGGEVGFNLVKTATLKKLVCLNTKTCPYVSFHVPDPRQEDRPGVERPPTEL
Property Name: pIC50
Field pIC50 (float): negative decimal logarithm of the concentration in molar.

Request: Item C[C@H](C(=O)O)c1cccc(C(=O)c2ccccc2)c1 [Dexketoprofen, reference compound] has what recorded pIC50?
Response: 8.82

----------
Biological target: COX-2 (Homo sapiens)
Construct: purchased Abcam ab283401
Sequence (P35354 18-604): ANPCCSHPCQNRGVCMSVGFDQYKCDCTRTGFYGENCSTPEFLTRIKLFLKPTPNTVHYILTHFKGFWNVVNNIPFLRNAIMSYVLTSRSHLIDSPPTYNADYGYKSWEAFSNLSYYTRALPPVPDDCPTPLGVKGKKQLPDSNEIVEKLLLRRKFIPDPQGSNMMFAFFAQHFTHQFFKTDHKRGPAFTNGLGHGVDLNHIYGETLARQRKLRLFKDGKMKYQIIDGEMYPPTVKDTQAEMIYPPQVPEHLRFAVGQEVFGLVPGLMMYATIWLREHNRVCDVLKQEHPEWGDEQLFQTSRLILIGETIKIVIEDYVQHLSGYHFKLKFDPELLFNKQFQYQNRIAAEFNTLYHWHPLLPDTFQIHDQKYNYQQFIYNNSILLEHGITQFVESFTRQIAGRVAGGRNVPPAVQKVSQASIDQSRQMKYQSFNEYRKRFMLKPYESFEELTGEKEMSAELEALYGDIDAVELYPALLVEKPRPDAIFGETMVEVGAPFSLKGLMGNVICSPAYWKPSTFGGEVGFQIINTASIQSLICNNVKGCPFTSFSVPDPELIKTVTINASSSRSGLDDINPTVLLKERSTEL
Assay: Fluorometric COX-2 inhibitor screening kit
Type: biochemical
Conditions: mean ± standard error, three independent measurements
pIC50: −log10 of the molar value.
Property Name: pIC50

Request: Item C[C@H](C(=O)NCC(=O)O)c1cccc(C(=O)c2ccccc2)c1 has what recorded pIC50?
Response: < 4.00
